Each recorded value in this set is attributed to ChEMBL document CHEMBL4680273.

Give measured log10 of MIC for each item. Keep answers brief.
system: Staphylococcus aureus; test: Antibacterial activity against Staphylococcus aureus ATCC 29213 incubated for 24 hrs by CLSI-based broth microdilution method; format: functional
Log scale reminder: MIC in µg/mL, then log10 taken.

Guide cases for log10 of MIC, answers given:
log10 of MIC reported for this molecule `CC[C@H](C)[C@H](NC(=O)[C@@H](Cc1ccccc1)N(C)C)C(=O)N[C@@H](CO)C(=O)N[C@H](CCC(N)=O)C(=O)N[C@@H](C(=O)N[C@H](C(=O)N[C@@H](CO)C(=O)N[C@H]1C(=O)N[C@@H](C)C(=O)N[C@@H](CCCNC(=N)N)C(=O)N[C@@H]([C@@H](C)CC)C(=O)O[C@H]1C)[C@@H](C)CC)[C@@H](C)CC` : 1.20

log10 of MIC reported for this molecule `CC[C@H](C)[C@H](NC(=O)[C@@H](Cc1ccccc1)NC(=O)c1ccccc1)C(=O)N[C@@H](CO)C(=O)N[C@H](CCC(N)=O)C(=O)N[C@@H](C(=O)N[C@H](C(=O)N[C@@H](CO)C(=O)N[C@H]1C(=O)N[C@@H](C)C(=O)N[C@@H](CCCNC(=N)N)C(=O)N[C@@H]([C@@H](C)CC)C(=O)O[C@H]1C)[C@@H](C)CC)[C@@H](C)CC` : 0.90

log10 of MIC reported for this molecule `CC[C@H](C)[C@H](NC(=O)[C@@H](Cc1ccccc1)NC)C(=O)N[C@@H](CCCCN)C(=O)N[C@H](CCC(N)=O)C(=O)N[C@@H](C(=O)N[C@H](C(=O)N[C@@H](CO)C(=O)N[C@H]1C(=O)N[C@@H](C)C(=O)N[C@@H](CCCNC(=N)N)C(=O)N[C@@H]([C@@H](C)CC)C(=O)O[C@H]1C)[C@@H](C)CC)[C@@H](C)CC` : 0.60

log10 of MIC reported for this molecule `CC[C@H](C)[C@H](NC(=O)[C@@H](Cc1ccccc1)NC)C(=O)N[C@@H](CO)C(=O)N[C@H](CCCCN)C(=O)N[C@@H](C(=O)N[C@H](C(=O)N[C@@H](C)C(=O)N[C@H]1C(=O)N[C@@H](C)C(=O)N[C@@H](CCCNC(=N)N)C(=O)N[C@@H]([C@@H](C)CC)C(=O)O[C@H]1C)[C@@H](C)CC)[C@@H](C)CC` : 0.60

log10 of MIC reported for this molecule `CC[C@H](C)[C@H](NC(=O)[C@H](Cc1ccccc1)NC)C(=O)N[C@@H](CO)C(=O)N[C@H](CCC(N)=O)C(=O)N[C@@H](C(=O)N[C@H](C(=O)N[C@@H](CO)C(=O)N[C@H]1C(=O)N[C@@H](C)C(=O)N[C@@H](CCCNC(=N)N)C(=O)N[C@@H]([C@@H](C)CC)C(=O)O[C@H]1C)[C@@H](C)CC)[C@@H](C)CC` : 0.30

log10 of MIC reported for this molecule `CC[C@H](C)[C@H](NC(=O)[C@@H](Cc1ccccc1)NC)C(=O)N[C@@H](CO)C(=O)N[C@H](CCC(N)=O)C(=O)N[C@@H](C(=O)N[C@H](C(=O)N[C@@H](CCCCO)C(=O)N[C@H]1C(=O)N[C@@H](C)C(=O)N[C@@H](CCCNC(=N)N)C(=O)N[C@@H]([C@@H](C)CC)C(=O)O[C@H]1C)[C@@H](C)CC)[C@@H](C)CC` : 1.51

Continuing:
log10 of MIC reported for this molecule `CC[C@H](C)[C@H](NC(=O)[C@@H](N)Cc1ccccc1)C(=O)N[C@@H](CO)C(=O)N[C@H](CCC(N)=O)C(=O)N[C@@H](C(=O)N[C@H](C(=O)N[C@@H](CO)C(=O)N[C@H]1C(=O)N[C@@H](C)C(=O)N[C@@H](CCCNC(=N)N)C(=O)N[C@@H]([C@@H](C)CC)C(=O)O[C@H]1C)[C@@H](C)CC)[C@@H](C)CC` : 0.30
